Quick reference: logP of the listed items.
- assay_notes: Lipophilicity, log P of the compound
- Format: physicochemical
- test_settings: octanol/water; read-out: logP

Below: 2 molecules and their reported logP.
{"smiles_text": "COc1ccc(Cl)cc1Nc1nc(-c2sc(NC(=O)C(C)(C)C)nc2C)c(-n2cc(CO)nn2)s1", "measured_parameter": "logP", "val": 4.8}
{"smiles_text": "COc1ccc(Cl)cc1Nc1nc(-c2sc(NC(=O)C(C)(C)C)nc2C)c(-n2cc(C(=O)O)nn2)s1", "measured_parameter": "logP", "val": 4.8}

Next up:
# get_value(readout='logP', item= `COC(=O)c1cn(-c2sc(Nc3cc(Cl)ccc3OC)nc2-c2sc(NC(=O)C(C)(C)C)nc2C)nn1` ) 4.8
